- experiment: solvent given as SMILES
- assay.setup: in CO
readout.name: absorption maximum (nm)
Supply the numeric figure in nm, leaving out any unit text.

[
  {
    "smiles.code": "Cc1cccc2cc3c(=O)n(C)c(=O)n(C)c3nc12",
    "absorption maximum / nm": 361
  },
  {
    "smiles.code": "Cc1cccc(Nc2ccccc2C(=O)O)c1C",
    "absorption maximum / nm": 345
  },
  {
    "smiles.code": "O=C(O)CCCOc1cc2ccc3cccc4ccc(c1)c2c34",
    "absorption maximum / nm": 382
  },
  {
    "smiles.code": "CCOC(=O)c1sc(SC)c2c(=O)n(C)nnc12",
    "absorption maximum / nm": 391.5
  },
  {
    "smiles.code": "[C-]#[N+]c1ccc(-c2ccc(N(C)C)cc2)cc1",
    "absorption maximum / nm": 333
  }
]

Inquiry: What value of absorption maximum has been recorded for this entry: Cc1cc(C)c(B(c2cc(-c3ccc(C(F)(F)F)cc3)sc2-c2sc(-c3ccc(C(F)(F)F)cc3)cc2P(=O)(c2ccccc2)c2ccccc2)c2c(C)cc(C)cc2C)c(C)c1
Reply text: 389

Inquiry: Given the compound Nc1cc(N)cc(-c2nc3ccccc3s2)c1 , what is its reported absorption maximum?
Reply text: 360

Inquiry: Which measured absorption maximum value corresponds to N#Cc1nc2cnc(N)nc2n1Cc1ccccc1 ?
Reply text: 333

Inquiry: Quick one: absorption maximum for CCCCN1\C(=C/C=C/C=C/C2=[N+](CCCC)c3ccc4cc(Br)ccc4c3C2(C)C)C(C)(C)c2c1ccc1cc(Br)ccc21 ?
Reply text: 683

Inquiry: # input compound: CCN(CC)c1ccc(-c2nc3c(c4c2-c2ccccc2CC4)-c2ccccc2CC3)cc1 ; wanted: its absorption maximum
Reply text: 352
